The reported measurements were obtained from PubChem BioAssay (NCI).

assay: NCI Yeast Anticancer Drug Screen. Data for the mlh1 rad18 strain (AID 175); conditions: S. cerevisiae mlh1 rad18 strain growth inhibition; at 50.0 µM; hits give high values
The panel holds about 79,000 compounds, 15% with a hit somewhere; the sample as a whole holds those more often.
TEST READOUT: growth inhibition (%)
A number alone suffices; assume %.

Ask | Query (molecule): COC(=O)CCc1c(Cc2ccc[nH]2)[nH]c(C(=O)OCc2ccccc2)c1C ; field requested: growth inhibition
Reply | 74.8

Ask | And what about the molecule CC(C)=CCC/C(C)=C/COc1ccc(/C=C2/C(=O)N(O)[C@@H](C)C(=O)N2O)cc1 ?
Reply | 79.2

Ask | How about COc1ccc(CN2CCCN(Cc3ccc(OC)cc3OC)C2c2cc(Cl)ccc2O)c(OC)c1 ?
Reply | 42

Ask | Consider next the molecule CCCCCCCCCCCCCCCBr in the same way.
Reply | 92.8

Ask | What about C[C@]12CC[C@H](O)C[C@@H]1CC[C@@H]1[C@@H]2CC[C@]2(C)C=CC[C@@H]12 ?
Reply | 58.8

Ask | // next record COC(=O)[C@H]1[C@@H](C(C)C)O[C@@H](C(C)C)O[C@H]1C(F)(F)F
Reply | 84.4

Ask | Please do the same for CCCC(O)CNCc1ccc(N(C)C)cc1 (configuration not stated) as well.
Reply | 41.8

Ask | Repeat with Nc1ccccc1Sc1ccc(F)cc1[N+](=O)[O-]
Reply | 88.5

Ask | Do the same for O=S1(=O)C=C(c2ccccc2)S(=O)(=O)C=C1c1ccccc1 please
Reply | 91.2

Ask | Thanks! And O=[N+]([O-])c1ccc(NS(=O)(=O)c2ccccc2)c(NS(=O)(=O)c2ccccc2)c1 ?
Reply | 71.7

Ask | And then c1ccc2c(c1)[nH]c1c[n+]3c(c[n+]12)[nH]c1ccccc13 , what is it?
Reply | 80

Ask | Repeat with COc1ccc(C2COc3cc(OC(C)=O)c(OC(C)=O)cc3C2)cc1 (configuration not stated)
Reply | 96.6

Ask | Repeat for the following molecule: CCn1c2ccc([N+](=O)[O-])cc2c2c([N+](=O)[O-])c(-n3cccc3)ccc21
Reply | 21.2

Ask | Do the same for CCCCCCN(CCCCCC)CCC(=O)c1ccc2cc(Cl)c3ccccc3c2c1 please
Reply | 87.8

Ask | Again, but for COc1ccc(/C(O)=C/c2nc3ccc([N+](=O)[O-])cc3[nH]c2=O)cc1
Reply | 90.8

Ask | Request: O=[N+]([O-])/C=C/c1cc2c(ccc3ccccc32)[nH]1
Reply | 89

Ask | Now give it for NC(=O)C12OC3CC(CC(C3)O1)O2 too.
Reply | 11.2

Ask | Moving on to the next molecule: C(=NCCc1ccccc1)c1ccccc1B1OB(c2ccccc2C=NCCc2ccccc2)OB(c2ccccc2C=NCCc2ccccc2)O1
Reply | 99.5

Ask | Also CC(=O)Oc1cc2c(=O)oc3c(OC(C)=O)c(OC(C)=O)c(OC(C)=O)c4c(=O)oc(c1OC(C)=O)c2c34 ?
Reply | 88.2

Ask | What do you get for CC(=O)Sc1ccc(Br)cc1 ?
Reply | 71.2

Ask | Could you do the same for ClCc1nc2ccccc2c2ccccc12 , please?
Reply | 83.5

Ask | Please answer likewise for O=c1c2cnccc2cc2c3ccccc3ccn12
Reply | 64
